Target: MAP4K2 (Homo sapiens, UniProt Q12851)
Construct: purchased Ambit Biosciences (scanMAXX KINOMEscan)
Sequence (Q12851 whole entry): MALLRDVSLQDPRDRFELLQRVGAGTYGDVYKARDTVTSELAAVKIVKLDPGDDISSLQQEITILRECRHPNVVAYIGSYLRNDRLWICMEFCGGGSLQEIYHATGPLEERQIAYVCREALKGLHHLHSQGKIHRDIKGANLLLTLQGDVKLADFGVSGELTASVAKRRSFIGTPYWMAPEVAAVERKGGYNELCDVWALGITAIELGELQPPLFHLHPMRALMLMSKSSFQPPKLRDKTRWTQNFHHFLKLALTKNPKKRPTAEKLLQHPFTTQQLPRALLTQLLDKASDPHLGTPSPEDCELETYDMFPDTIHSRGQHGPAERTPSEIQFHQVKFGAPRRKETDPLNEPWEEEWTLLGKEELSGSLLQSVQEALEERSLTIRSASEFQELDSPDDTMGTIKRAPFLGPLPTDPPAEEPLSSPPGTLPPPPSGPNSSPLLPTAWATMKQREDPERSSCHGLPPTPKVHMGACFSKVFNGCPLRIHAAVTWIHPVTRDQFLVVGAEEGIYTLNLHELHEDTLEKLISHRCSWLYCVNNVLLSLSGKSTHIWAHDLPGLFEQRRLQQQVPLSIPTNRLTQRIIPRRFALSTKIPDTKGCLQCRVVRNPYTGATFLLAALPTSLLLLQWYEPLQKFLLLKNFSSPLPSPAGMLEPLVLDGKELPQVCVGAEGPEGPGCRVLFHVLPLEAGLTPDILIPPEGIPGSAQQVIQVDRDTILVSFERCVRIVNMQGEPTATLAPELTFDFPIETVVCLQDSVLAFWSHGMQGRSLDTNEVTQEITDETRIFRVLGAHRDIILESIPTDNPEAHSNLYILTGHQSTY
Experiment: KINOMEscan, MAP4K2
Type: binding
Conditions: kinase MAP4K2; 1 µM; read-out: % of control at 1 µM
Property label: remaining binding at 1 µM (%)
One number for each entry, in %.

Record excerpt, results attached:
CS(=O)(=O)N1CCN(Cc2cc3nc(-c4cccc5[nH]ncc45)nc(N4CCOCC4)c3s2)CC1 [Pictilisib] | 100
Nc1cc(C(F)(F)F)c(-c2cc(N3CCOCC3)nc(N3CCOCC3)n2)cn1 [Buparlisib] | 82
COc1ncc(-c2ccc3nccc(-c4ccnnc4)c3c2)cc1NS(=O)(=O)c1ccc(F)cc1F [Omipalisib] | 100
FC(F)c1nc2ccccc2n1-c1nc(N2CCOCC2)nc(N2CCOCC2)n1 [ZSTK474] | 85

Lookup: Dear colleague, I am looking for the recorded remaining binding at 1 µM of the following compound: Cn1c(=O)n(-c2ccc(C(C)(C)C#N)cc2)c2c3cc(-c4cnc5ccccc5c4)ccc3ncc21 [Dactolisib]
Found: 0.25
